Values from patent US11472778B2

# key: entry, value: EC50
Test system: HCV replicon D168V variant in Huh7 cells
Assay: microbe, parasite or virus in culture
Format: cell-based, Hepatitis C virus
Settings: Hepatitis C virus, Huh-7, read-out: Replicon EC50 (nM) D168V, Table 9

Would you please look over these solved cases?
C=C[C@@H]1C[C@]1(NC(=O)[C@@H]1C[C@@H](Oc2nc3cc(OC)ccc3nc2Cl)CN1C(=O)[C@@H](NC(=O)OC(C)(C)C)C(C)(C)C)C(=O)NS(=O)(=O)C1(C)CC1 [Compound 10d]    12 to 38 nM
C=C[C@@H]1C[C@]1(NC(=O)[C@@H]1C[C@@H](Oc2nc3cc(OC)ccc3nc2C)CN1C(=O)[C@@H](NC(=O)OC1CCCC1)C(C)(C)C)C(=O)NS(=O)(=O)C1(C)CC1 [Compound 12b]    59 nM
C=C[C@@H]1C[C@]1(NC(=O)[C@@H]1C[C@@H](Oc2nc3cc(OC)ccc3nc2Cl)CN1C(=O)[C@@H](NC(=O)OC1CCCC1)C(C)(C)C)C(=O)NS(=O)(=O)C1(C)CC1 [Compound 12d]    12 to 38 nM

Recorded EC50 (compound `C=C[C@@H]1C[C@]1(NC(=O)[C@@H]1C[C@@H](Oc2nc3cc(OC)ccc3nc2CC)CN1C(=O)[C@@H](NC(=O)OC(C)(C)C)C(C)(C)C)C(=O)NS(=O)(=O)C1CC1` ): > 500 nM

====

Target: wild-type GT1a NS3/4A protease (UniProt P27958, C1185S, species not given)
Construct: Ki (nM) GT1a WT NS3/4A Protease
Format: biochemical, Hepatitis C virus
Conditions: read-out: Ki (nM) GT1a WT NS3/4A Protease; Table 1
attribute.measured: Ki (nM)
Write the number in nM without appending the unit.

COc1ccc2nc(C(F)(F)F)c(O[C@@H]3C[C@H]4C(=O)N[C@]5(C(=O)NS(=O)(=O)C6(C)CC6)C[C@H]5/C=C\CCCCC[C@H](NC(=O)OC5CCCC5)C(=O)N4C3)nc2c1 [Compound 23d]    8.14

Reported wild-type GT1a NS3/4A protease (UniProt P27958, C1185S, species not given) Ki for item CC(C)(C)OC(=O)N[C@H]1CCCCC/C=C\[C@@H]2C[C@@]2(C(=O)NS(=O)(=O)C2CC2)NC(=O)[C@@H]2C[C@@H](Oc3nc4ccccc4nc3-c3cccs3)CN2C1=O [Compound 18f, reference compound] was 1.03

Reported wild-type GT1a NS3/4A protease (UniProt P27958, C1185S, species not given) Ki for item COc1ccc2nc(C)c(O[C@@H]3C[C@H]4C(=O)N[C@]5(C(=O)NS(=O)(=O)C6(C)CC6)C[C@H]5/C=C\CCCCC[C@H](NC(=O)OC5CCCC5)C(=O)N4C3)nc2c1 [Compound 23b] was 1.13

====

Target: GT1a D168A NS3/4A protease
Type: biochemical, Hepatitis C virus
Details: Table 3; Ki D168A relative to GT1a WT
attribute.measured: Ki (Fold change) GT1a D168A NS3/4A Protease

COc1ccc2nc(C(F)(F)F)c(O[C@@H]3C[C@H]4C(=O)N[C@]5(C(=O)NS(=O)(=O)C6(C)CC6)C[C@H]5/C=C\CCCCC[C@H](NC(=O)OC5CCCC5)C(=O)N4C3)nc2c1 [Compound 23d]    (14) fold
COc1ccc2nc(C)c(O[C@@H]3C[C@H]4C(=O)N[C@]5(C(=O)NS(=O)(=O)C6(C)CC6)C[C@H]5/C=C\CCCCC[C@H](NC(=O)OC(C)(C)C)C(=O)N4C3)nc2c1 [Compound 19b]    (14) fold
